TEST TARGET: Fatty acid-binding protein 5 (Mus musculus)
Sequence (Q05816 whole entry): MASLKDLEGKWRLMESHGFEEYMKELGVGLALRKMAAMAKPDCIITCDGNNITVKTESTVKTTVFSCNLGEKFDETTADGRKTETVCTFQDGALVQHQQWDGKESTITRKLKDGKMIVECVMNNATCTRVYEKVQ
MEASURED PROPERTY: Kd (nM)
Value expressed in nM; do not type the unit.

query: # get_value(readout='Kd', item= `O=S(=O)(O)c1cccc2cccc(Nc3ccccc3)c12` )
result: 70

====

TEST TARGET: UniProt Q05816
MEASURED PROPERTY: Kd (nM)
Response body: numeric value in nM, unit text excluded.

query: Reported Kd, compound CCCCC/C=C\C/C=C\C/C=C\C/C=C\CCCC(=O)NCCO [Arachidonoyl ethanolamide] : ____
result: 100

query: Which value of Kd has been reported for CCCCC/C=C\C/C=C\C/C=C\C/C=C\CCCC(=O)O [[1-14C]Arachidonic acid] in the records?
result: 42.1
